target: Cytochrome P450 3A4 (Homo sapiens) (UniProt P08684); test: qHTS Assay for Activators of Cytochrome P450 3A4 (AID 885); details: recombinant CYP3A4, Luciferin-PPXE luminescence, 60 min; series mostly up to 11.4 µM; also: nearly all actives have a fitted effect of over 65% in size
Sequence (P08684 whole entry, looked up): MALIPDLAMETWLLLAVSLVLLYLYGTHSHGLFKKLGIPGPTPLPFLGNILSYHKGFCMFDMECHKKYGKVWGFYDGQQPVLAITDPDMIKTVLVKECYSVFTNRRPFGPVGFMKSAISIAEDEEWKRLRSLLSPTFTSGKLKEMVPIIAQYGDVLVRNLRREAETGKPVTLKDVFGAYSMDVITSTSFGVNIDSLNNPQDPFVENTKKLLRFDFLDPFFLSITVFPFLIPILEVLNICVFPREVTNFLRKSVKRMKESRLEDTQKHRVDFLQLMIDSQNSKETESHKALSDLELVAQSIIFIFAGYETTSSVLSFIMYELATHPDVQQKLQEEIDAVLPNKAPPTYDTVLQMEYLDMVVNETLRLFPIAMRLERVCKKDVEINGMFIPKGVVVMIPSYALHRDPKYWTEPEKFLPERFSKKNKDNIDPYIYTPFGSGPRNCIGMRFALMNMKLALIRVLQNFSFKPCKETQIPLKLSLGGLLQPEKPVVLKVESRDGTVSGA
Activity calls are given as the source filed them. Calls follow the shape of the dose curve; as a rule, active = well fitted activation curve with a large enough effect; inconclusive = small, poorly fitted or top-dose-only effect; inactive = no such curve, though single readings can be large or run the other way.
Parameter Measured: outcome

Answered examples (9):
- Cc1ccc(C)c(NC(=O)NCc2ccc(Cl)cc2)c1: inactive
- O=C1/C(=C/c2ccccc2)[C@@H](NC2CCCCC2)c2ccccc21: inactive
- COC(=O)[C@H](N)Cc1ccc(Cl)cc1: inactive
- COc1ccc(C(=O)Nc2ccccc2)cc1[N+](=O)[O-]: inactive
- C[C@H]1CN(S(=O)(=O)c2cccc3cnccc23)CCN1: inactive
- C[C@@]12CCC(=O)C=C1CC[C@H]1[C@@H]2[C@@H](O)C[C@]2(C)[C@@H]1CC[C@@]2(O)C(=O)COC(=O)C1CCCC1: inactive
- O=C1/C(=C/c2cccnc2)SC(=S)N1Cc1ccco1: inactive
- O=C1c2cccc([N+](=O)[O-])c2C(=O)N1c1ncn[nH]1: inactive
- COc1cc2nc(N3CCN(C(=O)OCc4ccccc4)[C@H](C(=O)NC(C)(C)C)C3)nc(N)c2cc1OC: inactive

Please find the next compound below.
Fill in outcome for record Cn1c(=O)c(CCc2ccccc2)nc2cnc(N3CCNCC3)nc21 inactive
